Measured pIC50 of individual entries
- Experimental System: UniProt P0DTD1
- Assay Method Text: NSP14 MTase inhibition assay at 37° C. (MTase-Glo SAH detection)
- Assay type: biochemical, SARS-CoV-2
- Applied Conditions: 0.3 nM NSP14, 2.5 μM SAM, 2.5 μM GpppA RNA, 45 min at 37° C.; read-out: Nsp14 Mtase Inh. IC50
pIC50: −log10 of the molar value.

Compound	Result Comparator	pIC50
Cc1c(S(=O)(=O)c2ccc3[nH]ncc3c2)cc(C(=O)N[C@H]2CN(c3ccc(C#N)cn3)CC23CC3)n1C	=	9.15
Cc1c(S(=O)(=O)c2cc(Cl)c3[nH]ncc3c2)cc(C(=O)N[C@@H]2CCN(c3ncc(F)cn3)C2)n1C	>	9.82
Cc1c(S(=O)(=O)c2ccc3[nH]ncc3c2)cc(C(=O)N[C@@H]2CCN(Cc3ccc(F)cn3)C2)n1C	=	8.37
Cc1c(S(=O)(=O)c2ccc3[nH]ncc3c2)cc(C(=O)N[C@H]2CN(c3ncc(F)cn3)C[C@H]2O)n1C	=	7.85
Cc1c(S(=O)(=O)c2ccc3[nH]ncc3c2)cc(C(=O)N[C@@H]2CCN(c3cnccc3C#N)C2)n1C	>	9.82

----------
- Experimental System: NSP14 (Severe acute respiratory syndrome coronavirus 2, UniProt P0DTD1)
- Assay Method Text: NSP14 MTase inhibition assay at 37° C. (MTase-Glo SAH detection)
- Format: biochemical, SARS-CoV-2
- Applied Conditions: 37° C., 0.3 nM NSP14, 2.5 μM SAM, 2.5 μM GpppA RNA; read-out: Nsp14 Mtase Inh. IC50
Mark t only when IC50 stays strictly below 3 nM. Values equal to the cut-off are f.

Molecule	Experimental System	Qualitative Label
Cc1c(S(=O)(=O)c2ccc3[nH]ncc3c2)cc(C(=O)NCc2c(Cl)ccn(C)c2=O)n1C	NSP14 (Severe acute respiratory syndrome coronavirus 2, UniProt P0DTD1)	t
Cc1c(S(=O)(=O)c2ccc3[nH]nc(F)c3c2)cc(C(=O)NCc2c(F)ccc3nnn(C4CC4)c23)n1C	NSP14 (Severe acute respiratory syndrome coronavirus 2, UniProt P0DTD1)	t
Cc1c(S(=O)(=O)c2cc(Cl)c3[nH]ncc3c2)cc(C(=O)NCc2c(Cl)cnn2C)n1C	NSP14 (Severe acute respiratory syndrome coronavirus 2, UniProt P0DTD1)	t
Cc1c(S(=O)(=O)c2ccc3[nH]ncc3c2)cc(C(=O)NCc2c[nH]c(=O)c3cnccc23)n1C	NSP14 (Severe acute respiratory syndrome coronavirus 2, UniProt P0DTD1)	t
Cc1c(S(=O)(=O)c2cc(C#N)c3[nH]ncc3c2)cc(C(=O)NCc2c(F)ccc3cnn(C4CC4)c23)n1C	NSP14 (Severe acute respiratory syndrome coronavirus 2, UniProt P0DTD1)	t
Cc1c(S(=O)(=O)c2ccc3[nH]ncc3c2)cc(C(=O)NCCN(C)c2ncc(F)cn2)n1C	NSP14 (Severe acute respiratory syndrome coronavirus 2, UniProt P0DTD1)	f
Cc1c(S(=O)(=O)c2ccc3[nH]ncc3c2)cc(C(=O)NCc2cccnc2N2CCC(F)(F)C2)n1C	NSP14 (Severe acute respiratory syndrome coronavirus 2, UniProt P0DTD1)	t
Cc1c(S(=O)(=O)c2cc(Cl)c3[nH]ncc3c2)cc(C(=O)NCc2cccc3cnn(C4CC4)c23)n1C	NSP14 (Severe acute respiratory syndrome coronavirus 2, UniProt P0DTD1)	t
Cc1c(S(=O)(=O)c2ccc3[nH]ncc3c2)cc(C(=O)NCc2cccnc2C(F)(F)F)n1C	NSP14 (Severe acute respiratory syndrome coronavirus 2, UniProt P0DTD1)	f
Cc1c(S(=O)(=O)c2cc3cn[nH]c3cn2)cc(C(=O)NCc2cccc3cnn(C4CC4)c23)n1C	NSP14 (Severe acute respiratory syndrome coronavirus 2, UniProt P0DTD1)	f
Cc1c(S(=O)(=O)c2ccc3[nH]ncc3c2)cc(C(=O)NCc2cccc3c2ccc(=O)n3C)n1C	NSP14 (Severe acute respiratory syndrome coronavirus 2, UniProt P0DTD1)	t
Cc1cc(S(=O)(=O)c2cc(C(=O)NCc3c(F)ccc4ncn(C5CC5)c34)n(C)c2C)cc2cn[nH]c12	NSP14 (Severe acute respiratory syndrome coronavirus 2, UniProt P0DTD1)	t
Cc1c(S(=O)(=O)c2cc(C#N)c3[nH]ncc3c2)cc(C(=O)NCc2cccc3cnn(C4CC4)c23)n1C	NSP14 (Severe acute respiratory syndrome coronavirus 2, UniProt P0DTD1)	t
Cc1c(S(=O)(=O)c2ccc3[nH]ncc3c2)cc(C(=O)NCc2c(Cl)cnn2C)n1C1CC1	NSP14 (Severe acute respiratory syndrome coronavirus 2, UniProt P0DTD1)	t
Cc1c(S(=O)(=O)c2ccc3[nH]ncc3c2)cc(C(=O)NC2CCc3cccc(F)c32)n1C (racemic)	NSP14 (Severe acute respiratory syndrome coronavirus 2, UniProt P0DTD1)	t
